Would you kindly list interaction score for each of these binders?
Biological target: T1, 4H619-bA
T1 chain: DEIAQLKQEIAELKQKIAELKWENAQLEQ
Test: two-hybrid library CCNG1;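 note: natural log of median RNA to DNA barcode read ratio; higher means stronger binding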
Write no unit; give the number alone.

interaction score lookup needed for DKNAQLKQEIAELEQKIAELKWKNAQLEQ [4H3631-bA] , thanks.
-0.0328

Also, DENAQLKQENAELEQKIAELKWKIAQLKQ [4H1710-bA] please.
0.519

Subsequent entry: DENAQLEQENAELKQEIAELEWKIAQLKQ [4H1222-bA]
-1.01

Next binder up: DENAQLEQKIAELKQKNAELEWEIAQLEQ [4H1393-bA]
-1.63

The reported numbers originate from paper PMC10397247.
